These data points were gathered from patent US4927826A.

# Test system: PAF-induced Bronchoconstriction
# procedure.text: PAF Induced Bronchoconstriction Assay
# Type: in vivo
# setup.conditions: guinea pig; 1 mg/Kg i.v.; 1 minute pretreatment; PAF 1.0 μg/kg i.v.; ± standard error of the mean
Exercise: state measured Percent Inhib. of PAF-induced Bronchoconstriction, 1 mg/Kg i.v. for each of the compounds provided.
Response body: numeric value in %, unit text excluded.

Query: Record request: Percent Inhib. of PAF-induced Bronchoconstriction, 1 mg/Kg i.v. value, item O=C(/C=C/C1CC1(c1ccccc1)c1ccccc1)NCCCCc1cccnc1 (racemic)
Result: 48

Query: And then O=C(/C=C/C1CC1(c1ccc(F)cc1)c1ccc(F)cc1)NCCCCc1cccnc1 (racemic) , what is it?
Result: 20

Query: And then O=C(/C=C/[C@H]1CC1(c1cccc(F)c1)c1cccc(F)c1)NCCCCc1cccnc1 , what is it?
Result: 29

Query: And then COc1cccc(C2(c3cccc(OC)c3)C[C@H]2/C=C/C(=O)NCCCCc2cccnc2)c1 , what is it?
Result: 25

Query: And then O=C(/C=C/[C@@H]1CC1(c1ccc(F)cc1)c1ccc(F)cc1)NCCCCc1cccnc1 , what is it?
Result: 33

Query: And then O=C(/C=C/[C@@H]1CC1(c1ccccc1)c1ccccc1)NCCCCc1cccnc1 , what is it?
Result: 86

Query: And then O=C(/C=C/C1CC1(c1cccc(F)c1)c1cccc(F)c1)NCCCCc1cccnc1 (racemic) , what is it?
Result: 96

Query: And then O=C(/C=C/[C@@H]1CC1(c1cccc(F)c1)c1cccc(F)c1)NCCCCc1cccnc1 , what is it?
Result: 90

Query: And then COc1cccc(C2(c3cccc(OC)c3)C[C@@H]2/C=C/C(=O)NCCCCc2cccnc2)c1 , what is it?
Result: 8

Query: And then O=C(/C=C/[C@H]1CC1(c1ccc(F)cc1)c1ccc(F)cc1)NCCCCc1cccnc1 , what is it?
Result: 13

Query: And then O=C(/C=C/[C@H]1CC1(c1ccccc1)c1ccccc1)NCCCCc1cccnc1 , what is it?
Result: 71
